Experiment: Half-life in human plasma
Format: ADME, cell-free
Please provide measured half-life for the entries that follow.

• CN[C@H](CC(C)C)C(=O)N[C@H]1C(=O)N[C@@H](CC(N)=O)C(=O)N[C@H]2C(=O)N[C@H]3C(=O)N[C@H](C(=O)N[C@H](C(=O)O)c4cc(O)cc(O)c4-c4cc3ccc4O)[C@H](O)c3ccc(c(Cl)c3)Oc3cc2cc(c3OC2OC(CO)C(O)C(O)C2OC2CC(C)(NC(=O)OCc3cc(C)c(OC(=O)COCCO)c(C)c3)C(O)C(C)O2)Oc2ccc(cc2Cl)[C@H]1O (stereo partly drawn) = 6.6 h
• CN[C@H](CC(C)C)C(=O)N[C@H]1C(=O)N[C@@H](CC(N)=O)C(=O)N[C@H]2C(=O)N[C@H]3C(=O)N[C@H](C(=O)N[C@H](C(=O)O)c4cc(O)cc(O)c4-c4cc3ccc4O)[C@H](O)c3ccc(c(Cl)c3)Oc3cc2cc(c3OC2OC(CO)C(O)C(O)C2OC2CC(C)(NC(=O)OCc3cc(C)c(OC(=O)NCCOCCO)c(C)c3)C(O)C(C)O2)Oc2ccc(cc2Cl)[C@H]1O (stereo partly drawn) = > 24 h

// moving on: another record for half-life
Ask: What measured half-life goes with CN[C@H](CC(C)C)C(=O)N[C@H]1C(=O)N[C@@H](CC(N)=O)C(=O)N[C@H]2C(=O)N[C@H]3C(=O)N[C@H](C(=O)N[C@H](C(=O)O)c4cc(O)cc(O)c4-c4cc3ccc4O)[C@H](O)c3ccc(c(Cl)c3)Oc3cc2cc(c3OC2OC(CO)C(O)C(O)C2OC2CC(C)(NC(=O)OCc3cc(C)c(OC(=O)C(C)NC(=O)COCCO)c(C)c3)C(O)C(C)O2)Oc2ccc(cc2Cl)[C@H]1O (stereo partly drawn) ?
Reply: > 24 h
